Values were extracted from paper PMC7374751.

target: T1, low-density lipoprotein receptor-related protein 1 (LRP-1) (UniProt Q07954 20-4544); assay: SPR; BIAcore T200; LRP-1 immobilised on a CM5 chip by amine coupling (3000 RU); 25 °C; 150 mM NaCl, 10 mM CaCl2, 50 mM Tris-HCl, 0.01% Tween-20, pH 7.5; 30 μl/min; ligands or pre-formed complexes injected; one-site binding model; triplicate; settings: both partners purified
T1 construct: low-density lipoprotein receptor-related protein 1 (LRP-1), bought from Biomac; source: bought: Biomac (Leipzig, Germany)
T1 sequence (Q07954 20-4544): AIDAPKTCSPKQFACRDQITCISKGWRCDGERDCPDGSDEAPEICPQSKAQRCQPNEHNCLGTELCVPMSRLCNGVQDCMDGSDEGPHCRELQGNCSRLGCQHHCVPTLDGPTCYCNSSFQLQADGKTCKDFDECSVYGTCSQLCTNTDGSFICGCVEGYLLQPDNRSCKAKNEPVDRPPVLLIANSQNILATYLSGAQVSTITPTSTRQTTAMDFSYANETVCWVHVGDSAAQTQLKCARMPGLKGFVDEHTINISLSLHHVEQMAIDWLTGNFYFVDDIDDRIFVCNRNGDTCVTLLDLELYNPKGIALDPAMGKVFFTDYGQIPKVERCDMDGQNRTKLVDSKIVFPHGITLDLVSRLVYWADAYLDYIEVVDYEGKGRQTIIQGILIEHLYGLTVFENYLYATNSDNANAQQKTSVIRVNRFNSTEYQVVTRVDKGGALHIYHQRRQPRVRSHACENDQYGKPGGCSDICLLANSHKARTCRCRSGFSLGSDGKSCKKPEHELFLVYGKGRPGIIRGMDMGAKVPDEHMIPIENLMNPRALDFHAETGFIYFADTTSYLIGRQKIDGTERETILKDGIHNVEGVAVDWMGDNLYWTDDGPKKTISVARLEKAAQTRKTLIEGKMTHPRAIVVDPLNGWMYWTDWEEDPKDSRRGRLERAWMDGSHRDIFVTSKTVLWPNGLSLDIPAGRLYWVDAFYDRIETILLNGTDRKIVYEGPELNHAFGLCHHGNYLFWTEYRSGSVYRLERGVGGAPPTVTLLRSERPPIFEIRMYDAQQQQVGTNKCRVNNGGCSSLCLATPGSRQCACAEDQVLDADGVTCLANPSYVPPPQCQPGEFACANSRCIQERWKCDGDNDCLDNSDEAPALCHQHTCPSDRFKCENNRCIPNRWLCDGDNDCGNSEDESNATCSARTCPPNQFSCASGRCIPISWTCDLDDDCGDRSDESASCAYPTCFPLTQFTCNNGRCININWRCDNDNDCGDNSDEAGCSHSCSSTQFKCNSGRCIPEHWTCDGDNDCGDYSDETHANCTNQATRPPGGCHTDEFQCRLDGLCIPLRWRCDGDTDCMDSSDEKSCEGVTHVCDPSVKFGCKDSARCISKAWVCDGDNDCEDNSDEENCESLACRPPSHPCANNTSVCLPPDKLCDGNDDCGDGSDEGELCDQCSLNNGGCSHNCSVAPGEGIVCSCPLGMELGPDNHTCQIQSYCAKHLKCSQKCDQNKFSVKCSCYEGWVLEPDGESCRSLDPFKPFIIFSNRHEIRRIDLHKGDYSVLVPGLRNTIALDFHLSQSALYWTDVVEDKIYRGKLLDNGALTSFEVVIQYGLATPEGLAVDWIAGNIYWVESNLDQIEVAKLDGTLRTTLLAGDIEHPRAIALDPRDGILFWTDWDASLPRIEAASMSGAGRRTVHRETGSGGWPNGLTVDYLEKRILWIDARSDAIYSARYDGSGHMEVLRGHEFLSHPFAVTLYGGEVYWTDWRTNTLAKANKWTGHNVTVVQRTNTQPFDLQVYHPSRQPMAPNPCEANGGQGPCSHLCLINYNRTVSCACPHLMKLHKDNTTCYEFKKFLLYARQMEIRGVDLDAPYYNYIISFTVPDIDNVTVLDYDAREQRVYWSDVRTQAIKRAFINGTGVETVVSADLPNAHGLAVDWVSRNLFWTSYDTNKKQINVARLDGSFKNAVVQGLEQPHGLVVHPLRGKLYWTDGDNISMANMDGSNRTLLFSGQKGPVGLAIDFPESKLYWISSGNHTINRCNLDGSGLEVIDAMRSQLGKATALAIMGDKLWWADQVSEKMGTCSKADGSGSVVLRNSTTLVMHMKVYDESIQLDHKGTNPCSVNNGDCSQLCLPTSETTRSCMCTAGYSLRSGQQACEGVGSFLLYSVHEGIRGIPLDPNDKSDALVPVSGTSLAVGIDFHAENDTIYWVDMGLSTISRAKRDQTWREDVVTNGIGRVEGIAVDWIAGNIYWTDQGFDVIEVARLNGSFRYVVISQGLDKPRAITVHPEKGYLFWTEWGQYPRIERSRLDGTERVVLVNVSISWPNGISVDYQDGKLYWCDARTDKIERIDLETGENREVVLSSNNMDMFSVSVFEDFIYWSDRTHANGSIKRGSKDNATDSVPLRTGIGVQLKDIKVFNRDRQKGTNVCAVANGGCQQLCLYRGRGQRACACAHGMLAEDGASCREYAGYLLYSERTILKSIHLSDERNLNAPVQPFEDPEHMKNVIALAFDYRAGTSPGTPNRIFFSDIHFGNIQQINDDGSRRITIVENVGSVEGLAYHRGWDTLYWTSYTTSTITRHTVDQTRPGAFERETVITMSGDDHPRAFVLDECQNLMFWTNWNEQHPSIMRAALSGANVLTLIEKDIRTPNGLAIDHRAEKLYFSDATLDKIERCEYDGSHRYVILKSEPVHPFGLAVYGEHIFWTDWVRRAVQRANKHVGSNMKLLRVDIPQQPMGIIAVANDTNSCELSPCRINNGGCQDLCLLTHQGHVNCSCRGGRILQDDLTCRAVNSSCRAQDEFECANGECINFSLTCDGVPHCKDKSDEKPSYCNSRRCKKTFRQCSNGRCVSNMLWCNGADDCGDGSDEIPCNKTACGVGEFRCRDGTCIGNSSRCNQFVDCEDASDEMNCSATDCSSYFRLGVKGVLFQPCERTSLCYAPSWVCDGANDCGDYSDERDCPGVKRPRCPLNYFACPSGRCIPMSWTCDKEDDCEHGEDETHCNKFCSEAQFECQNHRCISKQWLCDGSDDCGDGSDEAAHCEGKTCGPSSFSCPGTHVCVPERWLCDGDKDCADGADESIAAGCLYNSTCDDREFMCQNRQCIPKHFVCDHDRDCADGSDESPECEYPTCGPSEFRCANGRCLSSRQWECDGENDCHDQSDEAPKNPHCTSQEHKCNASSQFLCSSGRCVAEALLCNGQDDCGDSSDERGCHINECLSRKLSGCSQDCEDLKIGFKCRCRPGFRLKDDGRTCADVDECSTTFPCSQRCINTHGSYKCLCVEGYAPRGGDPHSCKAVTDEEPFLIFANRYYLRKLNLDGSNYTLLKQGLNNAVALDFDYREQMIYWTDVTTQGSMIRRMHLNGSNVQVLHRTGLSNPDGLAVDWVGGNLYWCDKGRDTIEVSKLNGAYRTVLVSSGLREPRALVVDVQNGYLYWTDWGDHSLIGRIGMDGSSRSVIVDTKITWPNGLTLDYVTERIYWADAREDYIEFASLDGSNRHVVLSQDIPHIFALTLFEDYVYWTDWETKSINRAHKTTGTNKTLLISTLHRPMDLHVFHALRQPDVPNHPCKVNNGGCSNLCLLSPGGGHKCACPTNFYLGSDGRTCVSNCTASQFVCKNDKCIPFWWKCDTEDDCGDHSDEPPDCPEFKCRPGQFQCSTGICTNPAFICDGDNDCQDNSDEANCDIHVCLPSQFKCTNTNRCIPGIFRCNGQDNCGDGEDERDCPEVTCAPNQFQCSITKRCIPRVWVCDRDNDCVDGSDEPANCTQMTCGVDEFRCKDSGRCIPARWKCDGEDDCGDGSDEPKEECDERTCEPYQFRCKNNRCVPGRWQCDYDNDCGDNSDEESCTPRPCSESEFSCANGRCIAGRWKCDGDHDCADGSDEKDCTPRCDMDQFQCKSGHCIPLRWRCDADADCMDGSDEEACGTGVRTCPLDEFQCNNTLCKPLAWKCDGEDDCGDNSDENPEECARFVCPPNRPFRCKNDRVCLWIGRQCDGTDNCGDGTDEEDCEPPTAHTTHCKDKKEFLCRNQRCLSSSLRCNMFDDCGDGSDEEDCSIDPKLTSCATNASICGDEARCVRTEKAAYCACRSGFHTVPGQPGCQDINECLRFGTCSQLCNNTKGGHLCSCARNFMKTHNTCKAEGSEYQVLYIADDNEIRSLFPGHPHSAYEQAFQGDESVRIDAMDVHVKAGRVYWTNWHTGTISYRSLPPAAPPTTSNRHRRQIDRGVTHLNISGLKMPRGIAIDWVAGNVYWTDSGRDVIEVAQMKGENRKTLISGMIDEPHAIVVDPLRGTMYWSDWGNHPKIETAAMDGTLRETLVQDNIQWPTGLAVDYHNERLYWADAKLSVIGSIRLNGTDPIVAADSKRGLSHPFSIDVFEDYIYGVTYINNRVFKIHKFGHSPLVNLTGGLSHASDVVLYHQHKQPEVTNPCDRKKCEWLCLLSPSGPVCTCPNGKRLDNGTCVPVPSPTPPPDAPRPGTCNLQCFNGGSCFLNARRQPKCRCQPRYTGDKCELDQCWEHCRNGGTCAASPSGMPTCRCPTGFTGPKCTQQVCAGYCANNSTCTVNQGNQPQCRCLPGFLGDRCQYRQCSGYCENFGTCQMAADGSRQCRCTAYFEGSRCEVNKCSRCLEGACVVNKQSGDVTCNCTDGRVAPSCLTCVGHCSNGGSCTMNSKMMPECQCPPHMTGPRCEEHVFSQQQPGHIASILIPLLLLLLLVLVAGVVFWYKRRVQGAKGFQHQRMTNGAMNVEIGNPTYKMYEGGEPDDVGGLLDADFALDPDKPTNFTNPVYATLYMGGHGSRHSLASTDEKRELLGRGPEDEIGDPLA

BINDER: FLAG-tagged N-TIMP-3 (N-terminal domain of TIMP-3) (domain or fragment, UniProt P35625 24-143, looked up) CTCSPSHPQDAFCNSDIVIRAKVVGKKLVKEGPFGTLVYTIKQMKMYRGFTKMPHVQYIHTEASESLCGLKLEVNKYQYLLTGRVYDGKMYTGLCNFVERWDQLTLSQRKGLNYRYHLGC
koff, s⁻¹: 0.00321
